B1: TPR 5TU (parent)
chain: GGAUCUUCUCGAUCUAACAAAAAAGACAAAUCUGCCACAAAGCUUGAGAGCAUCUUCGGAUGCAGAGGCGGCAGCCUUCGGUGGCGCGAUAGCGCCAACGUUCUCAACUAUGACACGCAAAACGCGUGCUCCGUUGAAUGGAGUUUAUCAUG

Variants of: B1
Assay: polymerase ribozyme fitness, log enrichment relative to wild type (log ratio); higher = more active; in vitro selection for triplet polymerase activity
This sample holds only a part of the variants without activity.
Readings of polymerase ribozyme fitness (log ratio) for the listed variants
Quantity: polymerase ribozyme fitness (log ratio)

C27G C87G G133C :: ≤ -4.2
C75G U77A A91G A106U U134G :: ≤ -4.2
A16C C76G C85U G133C C149A :: ≤ -4.2
A40C C63U U82G G83C C96G A120C A121U U144A :: -0.868
G48U C116U :: -0.65
A49U G80A :: -3.76
G46A U55G C79A C85G A97U :: ≤ -4.2
A16C G25U C36U G59C C93U U104G G140C :: ≤ -4.2
C14U G50C U56G C69U C118U :: ≤ -4.2
U15C A23C A30G U44A G70A C87A G141C :: ≤ -4.2
A20C G25U C51A U77G G94C A115U G140C :: ≤ -4.2
C43U G50U U109A A150U :: ≤ -4.2
U13G A47C G88C A91U C105U :: ≤ -4.2
A37G U44A A52C G86U C95U U101G U144C :: ≤ -4.2
C57U C114G :: -2.73
C35A G65U G83C C85A G124A :: ≤ -4.2
C8A A12G C85U C103G G124U C129A :: ≤ -4.2
U45A A73G G83C C85U :: ≤ -4.2
C54G U101G C118U :: -2.4
A91U G140U :: ≤ -4.2
U4G C5A U55G :: -0.269
U31A G88A U90A G133A :: ≤ -4.2

Cited source: the RNAGym collection of RNA variant scans (doi:10.1073/pnas.2313332121)
